# TEST SYSTEM: Calpain
# PROTOCOL: Calpain enzyme assay
# RUN PARAMETERS: Ki by Morrison equation; pH 7.5, 5 mM CaCl2
PARAMETER: Ki (nM)
Answers are plain numbers, in nM.

Guide cases for Ki, answers given:
| COMPOUND | TEST SYSTEM | Ki (nM) |
| --- | --- | --- |
| CCC(C)C(NC(=O)C(Cc1c[nH]cn1)NC(=O)Cc1ccccc1)C(=O)C(=O)NCC(=O)NC(Cc1ccc2ccccc2c1)C(N)=O (stereo not shown) [PHELIX308] | Calpain | 1510 |
| CCC(C)C(NC(=O)C(CC(C)C)NC(=O)OCc1ccccc1)C(=O)C(=O)NC1(C(=O)NC(Cc2ccc3ccccc3c2)C(N)=O)CC1 (stereo not shown) | Calpain | 2570 |
| CCC(C)C(NC(=O)C(CC(C)C)NC(=O)OCc1ccccc1)C(=O)C(=O)N1CC(C(=O)NCc2n[nH]c3c2CCC3)C1 (stereo not shown) | Calpain | 32.1 |
| CC(C)CC(NC(=O)OCc1ccccc1)C(=O)NC(C)C(=O)C(=O)NCCC(=O)NC(Cc1cccc(C#N)c1)C(N)=O (stereo not shown) | Calpain | 68.4 |
| CCC(C)C(NC(=O)C(CC(C)C)NC(=O)OCc1ccccc1)C(=O)C(=O)NC(C)(C)C(=O)NC(Cc1ccc2ccccc2c1)C(N)=O (stereo not shown) | Calpain | 1550 |

Provide Ki for all items below, preserving their order.
1. CC(C)CC(NC(=O)OCc1ccccc1)C(=O)NC(C)C(=O)C(=O)N1CCC(C(=O)NC(Cc2ccccc2)C(N)=O)CC1 (stereo not shown)
2. CCC(C)C(NC(=O)C(Cc1c[nH]cn1)NC(=O)OCc1ccccc1)C(=O)C(=O)NCC(=O)NC(Cc1ccc2ccccc2c1)C(N)=O (stereo not shown)
3. CC(NC(=O)C(Cc1ccccc1)NC(=O)Cc1ccccc1)C(=O)C(=O)NC(Cc1ccccc1)C(=O)NC(C)(C)C(=O)NCCN1CCOCC1 (stereo not shown)
4. CCC(C)C(NC(=O)C(CC(C)C)NC(=O)OCc1ccccc1)C(=O)C(=O)NC(CCCNC(=N)N)C(=O)NC(Cc1ccc2ccccc2c1)C(N)=O (stereo not shown) [PHELIX330]
5. CCC(C)C(NC(=O)C(CC(C)C)NC(=O)Cc1cncnc1)C(=O)C(=O)NCC(=O)NC(Cc1ccc2ccccc2c1)C(N)=O (stereo not shown)

1. 18100
2. 309
3. 3790
4. 21.4
5. 6.21

###

# TEST SYSTEM: Cathepsin B (Homo sapiens, UniProt P07858)
# PROTOCOL: Cathepsin B enzyme assay
# RUN PARAMETERS: Cat B (μM), Ki by Morrison equation; pH 6.0, substrate Z-Phe-Arg-Amc
Can you tell me Ki for the items I'm about to list?
Answers are plain numbers, in µM.

| MOLECULE | Ki / µM |
| --- | --- |
| CC(C)CC(=O)NC(Cc1ccccc1)C(=O)NC(C)C(=O)C(=O)NC(Cc1ccccc1)C(=O)NC(C)(C)C(N)=O (stereo not drawn) | 0.644 |

List the reported Ki of each molecule below.
1. CC(C)CC(NC(=O)C(Cc1ccccc1)NC(=O)OCc1ccccc1)C(=O)NC(Cc1ccccc1)C(=O)C(=O)NC(CCCNC(=N)N)C(N)=O (stereo not drawn)
2. CC(C)CC(NC(=O)OCc1ccccc1)C(=O)NC(C)C(=O)C(=O)NC(Cc1ccncc1)C(N)=O (stereo not drawn)
3. CCC(C)C(NC(=O)C(=O)C(C)NC(=O)C(Cc1ccccc1)NC(=O)Cc1ccc2ccccc2c1)C(=O)NC(C)(C)C(=O)O (stereo not drawn)

1. 0.0432
2. 7.3
3. 0.0549

Data provenance is patent US20190085024A1.
